System: human Factor 7 mRNA
Test: Dose-dependent antisense inhibition of human Factor 7 in HepB3 cells, transfection with electroporation
Assay type: cell-based
Settings: 25 μM, 16 hours (Example 7, Table 15)
Description: The gapmers were also transfected via electroporation and their dose-dependent inhibition of human Factor 7 mRNA was measured. […] After a treatment period of approximately 16 hours, RNA was isolated from the cells and Factor 7 mRNA levels were measured by quantitative real-time PCR. […] Factor 7 mRNA levels were adjusted according to total RNA content, as measured by RIBOGREEN®. […]
In the oligonucleotide strings, read from the 5' end, every base follows the letter of its sugar. An asterisk marks phosphorothioate; unmarked linkages are phosphodiester. Other units and linkages are bracketed, terminal groups are in braces. A string of capitals states the bases alone. e = 2'-O-(2-methoxyethyl) (MOE); [5mC] = 5-methylcytosine; d = 2'-deoxy (DNA)
propertyName: percent inhibition of Factor 7 mRNA, relative to untreated control cells (%)
Provide only the numeric value, understood in %.

1) 422086 (antisense eT*eG*e[5mC]*eA*eT*dG*dG*dT*dG*dA*dT*dG*d[5mC]*dT*dT*e[5mC]*eT*eG*eA*eA) [compound 422086] ... 63

Which percent inhibition of Factor 7 mRNA, relative to untreated control cells reading was recorded for the substance 422150 (antisense eG*e[5mC]*eA*dT*dG*dG*dT*dG*dA*dT*dG*d[5mC]*dT*dT*d[5mC]*dT*dG*eA*eA*eT) [compound 422150] ?
54

Now consider 422295 (antisense e[5mC]*eG*dA*dG*dT*dT*d[5mC]*dT*dG*d[5mC]*dA*dG*dG*dA*dG*e[5mC]*eG*eG*e[5mC]*e[5mC]) [compound 422295] and answer again.
58

Now consider 422229 (antisense eA*eT*dG*d[5mC]*dA*dT*dG*dG*dT*dG*dA*dT*dG*d[5mC]*dT*eT*e[5mC]*eT*eG*eA) [compound 422229] and answer again.
44

Now consider 422142 (antisense eG*eA*eG*eT*eT*d[5mC]*dT*dG*d[5mC]*dA*dG*dG*dA*dG*d[5mC]*eG*eG*e[5mC]*e[5mC]*eT) [compound 422142] and answer again.
67

Now consider 422183 (antisense eG*e[5mC]*eG*d[5mC]*d[5mC]*dA*d[5mC]*d[5mC]*d[5mC]*dG*d[5mC]*d[5mC]*dG*dG*d[5mC]*dT*d[5mC]*eT*eG*e[5mC]) [compound 422183] and answer again.
44

Now consider 422296 (antisense e[5mC]*e[5mC]*dG*dA*dG*dT*dT*d[5mC]*dT*dG*d[5mC]*dA*dG*dG*dA*eG*e[5mC]*eG*eG*e[5mC]) [compound 422296] and answer again.
56

----------
tested on: human Factor 7 mRNA; assay: Antisense inhibition of human Factor 7 mRNA in HepB3 cells, lipofectin, 50 nM, real-time RT-PCR; assay type: cell-based; details: Example 1; HepB3 cells, lipofectin, 50 nM, ~24 h, relative to untreated control cells
In the oligonucleotide strings, read from the 5' end, every base follows the letter of its sugar. An asterisk marks phosphorothioate; unmarked linkages are phosphodiester. Other units and linkages are bracketed, terminal groups are in braces. A string of capitals states the bases alone. e = 2'-O-(2-methoxyethyl) (MOE); [5mC] = 5-methylcytosine; d = 2'-deoxy (DNA)
Where % Inhibition (human Factor 7 mRNA) equals or exceeds 70%, the correct label is Fulfilled; where it does not, the label is Not fulfilled.

Quick check, % Inhibition (human Factor 7 mRNA) >= 70%? 407903 (antisense e[5mC]*e[5mC]*eG*e[5mC]*eG*dG*dA*dG*dA*d[5mC]*d[5mC]*dA*d[5mC]*d[5mC]*d[5mC]*eA*eG*eA*eT*eG) [compound 407903]
Fulfilled

Now consider 407652 (antisense eT*eG*eG*eG*eA*dG*d[5mC]*dT*dA*d[5mC]*dA*dG*d[5mC]*d[5mC]*dT*e[5mC]*eA*eA*eA*e[5mC]) [compound 407652] and answer again.
Not fulfilled

Now consider 407609 (antisense eA*eG*eA*eA*eG*d[5mC]*dA*dG*dA*dT*dA*dT*dA*dG*dG*eA*e[5mC]*eT*eG*eG) [compound 407609] and answer again.
Not fulfilled

Now consider 407915 (antisense eG*eT*eT*eG*e[5mC]*dG*d[5mC]*dA*dG*d[5mC]*d[5mC]*d[5mC]*dT*dG*dG*e[5mC]*e[5mC]*e[5mC]*e[5mC]*eA) [compound 407915] and answer again.
Fulfilled

Now consider 407655 (antisense eA*eG*eA*eG*eT*dG*d[5mC]*dA*dG*d[5mC]*dT*dT*dG*d[5mC]*d[5mC]*eA*eG*eG*eT*e[5mC]) [compound 407655] and answer again.
Not fulfilled

Now consider 407646 (antisense eG*eG*eT*eG*eA*dT*dG*d[5mC]*dT*dT*d[5mC]*dT*dG*dA*dA*eT*eT*eG*eT*e[5mC]) [compound 407646] and answer again.
Fulfilled
